- Test system: WI-38
- Method: Antiproliferative activity against human WI-38 cells assessed as cell proliferation inhibition incubated for 7 days by SRB assay
- Format: functional, cell-based
Quantity Name: IC50 (nM)
Only the number, expressed in nM, is required.

I have this compound here, O=C(c1cc(Cc2n[nH]c(=O)c3ccccc23)ccc1F)N1CCn2c(nnc2-c2ccc(Br)o2)C1 , and I need its recorded IC50.
530

====

- Tested on: CAPAN-1
- Method: Antiproliferative activity against human Talazoparib-resistant CAPAN-1 cells assessed as cell proliferation inhibition incubated for 7 days by SRB assay
- Format: functional, cell-based
Reported values of pIC50 for individual entries
Just so you know, pIC50 here is -log10 of the concentration in molar units; reply with that number alone.

For orientation, consider the following solved cases.
[
  {
    "Molecule": "O=C(c1cc(Cc2n[nH]c(=O)c3ccccc23)ccc1F)N1CCn2c(nnc2-c2ccc(CN3CCSCC3)o2)C1",
    "Quantitative Result": 6.39
  },
  {
    "Molecule": "O=C(c1cc(Cc2n[nH]c(=O)c3ccccc23)ccc1F)N1CCn2c(nnc2-c2ccc(CN3CCC3)o2)C1",
    "Quantitative Result": 5.25
  },
  {
    "Molecule": "O=C(c1cc(Cc2n[nH]c(=O)c3ccccc23)ccc1F)N1CCn2c(nnc2-c2ccc([N+](=O)[O-])o2)C1",
    "Quantitative Result": 6.67
  },
  {
    "Molecule": "Cn1cc(-c2nnc3n2CCN(C(=O)c2cc(Cc4n[nH]c(=O)c5ccccc45)ccc2F)C3)cn1",
    "Quantitative Result": 5.16
  },
  {
    "Molecule": "O=C(c1cc(Cc2n[nH]c(=O)c3ccccc23)ccc1F)N1CCn2c(nnc2-c2ccc(Cl)o2)C1",
    "Quantitative Result": 8.23
  },
  {
    "Molecule": "Cc1ccc(-c2nnc3n2CCN(C(=O)c2cc(Cc4n[nH]c(=O)c5ccccc45)ccc2F)C3)o1",
    "Quantitative Result": 8.00
  },
  {
    "Molecule": "O=C(c1cc(Cc2n[nH]c(=O)c3ccccc23)ccc1F)N1CCn2c(nnc2-c2ccc(CN3CCCCC3)o2)C1",
    "Quantitative Result": 6.41
  }
]

# query: pIC50 of entry Cc1nc(-c2nnc3n2CCN(C(=O)c2cc(Cc4n[nH]c(=O)c5ccccc45)ccc2F)C3)cs1
6.69

====

- Tested on: CAPAN-1
- Method: Antiproliferative activity against human Talazoparib-resistant CAPAN-1 cells assessed as cell proliferation inhibition incubated for 7 days by SRB assay
- Format: functional, cell-based
Quantity Name: IC50

[
  {
    "Molecule": "O=C(c1cc(Cc2n[nH]c(=O)c3ccccc23)ccc1F)N1CCn2c(nnc2-c2ccc(CN3CCOCC3)o2)C1",
    "IC50": "2000 nM"
  },
  {
    "Molecule": "CCN(CC)Cc1ccc(-c2nnc3n2CCN(C(=O)c2cc(Cc4n[nH]c(=O)c5ccccc45)ccc2F)C3)o1",
    "IC50": "701 nM"
  },
  {
    "Molecule": "O=C(c1cc(Cc2n[nH]c(=O)c3ccccc23)ccc1F)N1CCn2c(nnc2-c2ccco2)C1",
    "IC50": "40 nM"
  }
]

Okay, next one:
IC50 for O=C(c1cc(Cc2n[nH]c(=O)c3ccccc23)ccc1F)N1CCn2c(nnc2-c2ccc(CN3CCCC3)o2)C1 ?
905 nM

====

Record: log10 of IC50 reported on Poly [ADP-ribose] polymerase 1 (Homo sapiens, UniProt P09874).
Sequence (P09874 whole entry): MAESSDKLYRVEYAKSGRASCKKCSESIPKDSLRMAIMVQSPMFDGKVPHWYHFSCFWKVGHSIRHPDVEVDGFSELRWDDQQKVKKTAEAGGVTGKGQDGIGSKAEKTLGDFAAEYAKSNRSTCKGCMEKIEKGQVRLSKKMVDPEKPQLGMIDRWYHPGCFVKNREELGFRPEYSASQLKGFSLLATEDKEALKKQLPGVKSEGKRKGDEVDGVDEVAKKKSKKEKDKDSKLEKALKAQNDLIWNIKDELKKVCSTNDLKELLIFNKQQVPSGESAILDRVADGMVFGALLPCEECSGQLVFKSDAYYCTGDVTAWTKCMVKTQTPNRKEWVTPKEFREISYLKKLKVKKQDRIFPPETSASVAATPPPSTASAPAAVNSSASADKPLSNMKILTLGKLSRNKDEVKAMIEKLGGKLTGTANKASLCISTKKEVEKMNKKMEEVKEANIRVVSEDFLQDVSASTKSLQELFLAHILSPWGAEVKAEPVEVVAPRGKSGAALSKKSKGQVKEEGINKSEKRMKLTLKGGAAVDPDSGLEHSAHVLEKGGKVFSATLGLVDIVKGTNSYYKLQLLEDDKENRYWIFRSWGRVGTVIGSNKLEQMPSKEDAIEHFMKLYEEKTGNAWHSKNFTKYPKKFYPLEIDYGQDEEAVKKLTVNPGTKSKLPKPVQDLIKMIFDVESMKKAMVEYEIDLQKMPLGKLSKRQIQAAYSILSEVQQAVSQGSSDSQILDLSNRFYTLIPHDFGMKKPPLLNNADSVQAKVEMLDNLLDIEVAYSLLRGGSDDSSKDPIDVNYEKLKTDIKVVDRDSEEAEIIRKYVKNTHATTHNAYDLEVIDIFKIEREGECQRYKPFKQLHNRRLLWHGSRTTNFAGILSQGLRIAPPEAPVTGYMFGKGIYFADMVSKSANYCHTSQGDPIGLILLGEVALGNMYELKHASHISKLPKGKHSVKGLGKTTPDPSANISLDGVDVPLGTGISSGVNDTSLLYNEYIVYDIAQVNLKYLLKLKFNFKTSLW
Heads up: the numbers are on a log10 scale; they represent IC50 in nM.

[
  {
    "Compound": "CNCC(F)(F)c1ccc(-c2nnc3n2CCN(C(=O)c2cc(Cc4n[nH]c(=O)c5ccccc45)ccc2F)C3)o1",
    "log10 of IC50": 0.91
  },
  {
    "Compound": "O=C(c1cc(Cc2n[nH]c(=O)c3ccccc23)ccc1F)N1CCn2c(nnc2-c2ccc(C(F)(F)CO)o2)C1",
    "log10 of IC50": 0.75
  },
  {
    "Compound": "O=C(c1cc(Cc2n[nH]c(=O)c3ccccc23)ccc1F)N1CCn2c(nnc2C2CCOC2)C1 (stereo not given)",
    "log10 of IC50": 0.28
  },
  {
    "Compound": "CN(C)Cc1ccc(-c2nnc3n2CCN(C(=O)c2cc(Cc4n[nH]c(=O)c5ccccc45)ccc2F)C3)o1",
    "log10 of IC50": 0.13
  },
  {
    "Compound": "O=C(c1cc(Cc2n[nH]c(=O)c3ccccc23)ccc1F)N1CCn2c(nnc2-c2ccc(Cl)o2)C1",
    "log10 of IC50": -0.13
  }
]

Here is the next item to consider.
Give its log10 of IC50 value. Item: NCC(F)(F)c1ccc(-c2nnc3n2CCN(C(=O)c2cc(Cc4n[nH]c(=O)c5ccccc45)ccc2F)C3)o1
0.93

====

- Method: Antiproliferative activity against human Olaparib-resistant CAPAN-1 cells assessed as cell proliferation inhibition incubated for 7 days by SRB assay
- Type: functional, cell-based
The following compounds are shown together with reported pIC50 values.
Please note pIC50 is a logarithmic value: minus log10 of concentration in mol/L. Answer with that number alone.

Solved cases (3 shown):
[
  {
    "Compound": "CCN(CC)Cc1ccc(-c2nnc3n2CCN(C(=O)c2cc(Cc4n[nH]c(=O)c5ccccc45)ccc2F)C3)o1",
    "pIC50": 6.09
  },
  {
    "Compound": "O=C(c1cc(Cc2n[nH]c(=O)c3ccccc23)ccc1F)N1CCn2c(nnc2-c2ccc(CN3CCCCC3)o2)C1",
    "pIC50": 6.22
  },
  {
    "Compound": "Cn1cc(-c2nnc3n2CCN(C(=O)c2cc(Cc4n[nH]c(=O)c5ccccc45)ccc2F)C3)cn1",
    "pIC50": 5.14
  }
]

Could you now consider this next compound?
If you can, please state the reported pIC50 value of Cc1cccc(-c2nnc3n2CCN(C(=O)c2cc(Cc4n[nH]c(=O)c5ccccc45)ccc2F)C3)n1 .
7.37

====

- Target Entity: UniProtKB Q9UGN5
- Sequence (Q9UGN5 whole entry): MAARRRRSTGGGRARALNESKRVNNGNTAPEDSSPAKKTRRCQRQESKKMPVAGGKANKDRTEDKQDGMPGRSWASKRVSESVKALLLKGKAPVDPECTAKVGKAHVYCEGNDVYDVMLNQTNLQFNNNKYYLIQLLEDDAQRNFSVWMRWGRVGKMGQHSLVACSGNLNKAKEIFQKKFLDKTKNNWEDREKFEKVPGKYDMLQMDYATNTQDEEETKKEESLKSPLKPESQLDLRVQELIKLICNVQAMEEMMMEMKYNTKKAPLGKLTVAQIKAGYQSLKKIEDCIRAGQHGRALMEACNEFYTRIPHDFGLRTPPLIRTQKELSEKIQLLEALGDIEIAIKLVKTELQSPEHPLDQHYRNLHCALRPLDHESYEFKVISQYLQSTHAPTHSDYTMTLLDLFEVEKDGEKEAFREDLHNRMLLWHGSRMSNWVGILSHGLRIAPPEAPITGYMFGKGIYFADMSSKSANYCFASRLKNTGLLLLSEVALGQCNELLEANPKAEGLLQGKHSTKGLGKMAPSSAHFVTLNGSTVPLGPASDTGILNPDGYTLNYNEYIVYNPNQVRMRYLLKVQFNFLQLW
Quantity Name: pIC50
The quantity pIC50 is defined as the negative base-10 logarithm of the molar concentration.

Which pIC50 is listed for O=C(c1cc(Cc2n[nH]c(=O)c3ccccc23)ccc1F)N1CCn2c(nnc2-c2ccc(Br)o2)C1 ?
12.00

====

- Method: Half life in Sprague-Dawley rat at 5 mg/kg, iv and measured upto 24 hrs
- Format: ADME, organism-based
- Details: in vivo
Listed compounds paired with reported half-life
Dear colleague, please return just the value in h, with no unit written.

[
  {
    "Molecule": "O=C(c1cc(Cc2n[nH]c(=O)c3ccccc23)ccc1F)N1CCN(C(=O)C2CC2)CC1",
    "Quantity Name": "half-life",
    "Quantitative Result": 0.53
  }
]

Record request: half-life value, item O=C(c1cc(Cc2n[nH]c(=O)c3ccccc23)ccc1F)N1CCn2c(nnc2-c2ccc(Br)o2)C1
3.25

====

- Target Entity: Poly [ADP-ribose] polymerase 1 (Homo sapiens)
- Method: Inhibition of PARP1 (unknown origin) using histone as substrate by ELISA
# key: entry, value: IC50
Dear colleague, please return just the value in nM, with no unit written.

Look over these answered cases.
[
  {
    "Molecule": "Cc1nc(-c2nnc3n2CCN(C(=O)c2cc(Cc4n[nH]c(=O)c5ccccc45)ccc2F)C3)cs1",
    "Target Entity": "Poly [ADP-ribose] polymerase 1 (Homo sapiens)",
    "Quantitative Result": 2.14
  },
  {
    "Molecule": "Cc1cccc(-c2nnc3n2CCN(C(=O)c2cc(Cc4n[nH]c(=O)c5ccccc45)ccc2F)C3)n1",
    "Target Entity": "Poly [ADP-ribose] polymerase 1 (Homo sapiens)",
    "Quantitative Result": 13.5
  }
]

Find the recorded IC50 belonging to O=C(c1cc(Cc2n[nH]c(=O)c3ccccc23)ccc1F)N1CCn2c(nnc2-c2ccno2)C1 and report it.
0.97

====

- Method: Antiproliferative activity against human Olaparib-resistant CAPAN-1 cells assessed as cell proliferation inhibition incubated for 7 days by SRB assay
- Assay type: functional, cell-based
Reported pIC50 by item:
Field pIC50 (float): negative decimal logarithm of the concentration in molar.

[
  {
    "Compound": "CNCc1ccc(-c2nnc3n2CCN(C(=O)c2cc(Cc4n[nH]c(=O)c5ccccc45)ccc2F)C3)o1",
    "pIC50": 5.21
  },
  {
    "Compound": "O=C(c1cc(Cc2n[nH]c(=O)c3ccccc23)ccc1F)N1CCn2c(nnc2-c2ccc(C(F)F)o2)C1",
    "pIC50": 7.15
  },
  {
    "Compound": "O=C(c1cc(Cc2n[nH]c(=O)c3ccccc23)ccc1F)N1CCn2c(nnc2-c2ccc([N+](=O)[O-])o2)C1",
    "pIC50": 6.75
  },
  {
    "Compound": "NCC(F)(F)c1ccc(-c2nnc3n2CCN(C(=O)c2cc(Cc4n[nH]c(=O)c5ccccc45)ccc2F)C3)o1",
    "pIC50": 6.12
  },
  {
    "Compound": "O=C(c1cc(Cc2n[nH]c(=O)c3ccccc23)ccc1F)N1CCn2c(nnc2C2CCOC2)C1 (stereo unspecified)",
    "pIC50": 5.96
  }
]

Now, please, on to the next compound.
What does the record list as pIC50 for O=C(c1cc(Cc2n[nH]c(=O)c3ccccc23)ccc1F)N1CCn2c(nnc2-c2ccc(Br)o2)C1 ?
9.05
